systemName: Toll-like receptor 4 (Homo sapiens)
Sequence (O00206 whole entry): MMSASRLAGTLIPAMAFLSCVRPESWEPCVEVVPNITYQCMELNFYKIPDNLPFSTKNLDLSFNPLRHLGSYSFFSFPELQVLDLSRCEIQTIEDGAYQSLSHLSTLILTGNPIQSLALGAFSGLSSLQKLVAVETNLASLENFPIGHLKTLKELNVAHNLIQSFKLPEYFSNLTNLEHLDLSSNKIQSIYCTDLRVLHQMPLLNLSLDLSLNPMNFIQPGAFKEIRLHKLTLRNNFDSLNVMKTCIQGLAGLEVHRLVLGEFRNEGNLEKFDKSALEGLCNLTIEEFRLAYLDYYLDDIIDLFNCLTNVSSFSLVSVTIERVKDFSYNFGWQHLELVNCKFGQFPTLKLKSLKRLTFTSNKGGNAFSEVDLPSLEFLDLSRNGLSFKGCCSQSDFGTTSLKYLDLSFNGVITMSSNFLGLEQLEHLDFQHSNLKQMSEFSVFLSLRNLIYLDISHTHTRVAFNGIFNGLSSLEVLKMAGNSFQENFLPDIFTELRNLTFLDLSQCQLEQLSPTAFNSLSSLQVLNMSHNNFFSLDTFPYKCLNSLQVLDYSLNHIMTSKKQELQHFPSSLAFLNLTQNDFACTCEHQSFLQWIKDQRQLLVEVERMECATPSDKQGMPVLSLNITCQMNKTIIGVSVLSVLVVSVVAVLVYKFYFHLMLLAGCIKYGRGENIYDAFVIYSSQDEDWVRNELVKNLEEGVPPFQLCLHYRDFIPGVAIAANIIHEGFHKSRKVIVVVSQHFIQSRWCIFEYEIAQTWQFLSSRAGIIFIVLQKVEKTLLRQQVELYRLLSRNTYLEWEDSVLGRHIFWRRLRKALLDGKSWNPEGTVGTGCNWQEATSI
experimentNotes: Antagonist activity at human TLR4 expressed in LPS-stimulated HEK293 cells co-expressing MDM2 and CD14 after 2 hrs by SEAP assay
Type: cell-based
runConditions: in the assay text read “MD-2” for “MDM2”
measuredParameter: pIC50
Worth noting: pIC50 values are minus log10 of concentrations stated in mol/L.

// worked examples, pIC50 included
CN(CC(=O)Nc1ccc(N2CCOCC2)cc1)Cc1nc2scc(-c3ccccc3)c2c(=O)[nH]1: 3.78
COc1ccc(O)c(C(=O)c2cnc(/N=C(\N)Nc3ccc(F)cc3)nc2)c1: 4.78

Attention now shifts to the item below.
## Task // lookup pIC50 for `Cc1ccccc1Nc1nc(N)nc(CN2CCC[C@@H]2c2nc3ccccc3s2)n1`
## Result 4.19
